Ref: the NTF2 design screens of Basanta et al. (2020)

Assay: protease stability score; higher = more stable; yeast display proteolysis, trypsin and chymotrypsin;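 note: relative to predicted unfolded state with 0 unfolded-like and 1 meaning tenfold more protease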
Binary call on protease stability score: True from 0.9 upward, False beneath that.

Examples with answers:
input-sequence: SEKDERVHELLRHVEHALRTGDWEEMVKLADPHVRVIFNGKTLHGREMMNRFWEHFGADHIRIRDEDDYNGVVIVHIETVVGDKHHHVHIISEKIDGKWTMRELSIE
category-label: True
//
input-sequence: SEDEQLRYELAELFFHLISTGDEETIRHYFDPHVLVMIFVNGRNIENHGWEEMTRSLRELRIKDSRLKRVDVYGDYARMDIRVDGEINGVRRDTEVEIRIKWVNGRWKSVNIHIH
category-label: True
//
input-sequence: DEDHELSREFLEELLKSWITGDEDVMREFADPNVRQHVDGKDLHGMEEWTRFVYHMRFHDVRIEHHRLFDGQVEIKFREDVTYNGRRVHIESRVRIVKVNGVWRLKELYVH
category-label: False
//
input-sequence: SEDEEKAERLSRKVVHDLLTGDFKSLLEMFDPNVRVNINGVNNHGRHFFWHELYDELRRLGVDKIEVDLRSLQVYGDKVVLEMELRVNGKKITVEIHMKKVDGRWHIKEVTHE
category-label: True
//
input-sequence: DEIEEQSRRALHEYINKILTGDEKSLTDLMDPDARLIVGDKEVHGRKLVHEWMSQWTEHIRIKHVHLHDIEIIGEKVHLDMRLHGIINGKETEHKVELHMYKINGKWIIHTVKIL
category-label: True

Now take the following sequence into account.
Reported protease stability score at or above 0.9? SEEDEEAERMVRALNHKFRTGDWELSEKLFDPNTKLEIIINGKHIDIHGREMVIRLMEDELRRFDHVDIEIKRVDSQGEKANNDGVLVIKQGDFEVRHRFTLIIHVVNGVIKKISILFH True

====

Assay: protease stability score; higher = more stable; yeast display proteolysis, trypsin and chymotrypsin;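 note: relative to predicted unfolded state with 0 unfolded-like and 1 meaning tenfold more protease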
Binary call on protease stability score: Yes from 2 upward, No beneath that.

Examples with answers:
input-sequence: EETREASRIALEIFIRDLVTGNEDSLERLADPDTKFIINGRNYHGMEFLREEIRKWLERFKNIRVEVKVHHQRVFENHIEMDGRLDFNYDGQKEILEVRLFMVKFNGKWYIHSIEIR
category-label: Yes

input-sequence: DEDLSRNFHQFIEALKQNDTDRMKELIDPNARMRYGDKQLHGRENILNYWKKLNDQARVDLDLKSVRNDENHIRYNYKMRVHVNGRPVEDTATAEIRATNGRIVDIYIDFDPEKLRQIES
category-label: Yes

input-sequence: TEEHEDIMHFILEWTNSLLTGDFKRVKEMADPHVRVLIVIGDKELHLHGREWILKRTHDIVREMRVEIILHHVDSQGNFAHVDSTLRIEVDGVRFERKTRIHMDIVNGKLKSHEHRIE
category-label: No

Reported protease stability score at or above 2? SEEEKTLERIARLHIQLWLTGDEDTLKKLADPDDRLVVDFENHTWEHHGREEVEKHTKHFLRHLRITHVDHHTVQIINGKAHMHTTVDFQVNGKIVKMHTTIIVVEVNGRLKFVRIEVH No

Reported protease stability score at or above 2? HDEERDSKIASSIMVETWKTGNEHLMERMFDPHTRSHVGDKEIHGMEEFIRWLYELLRKIKNARFTVEDTDLINGVVVVITRLHVGDKDFLLTFFVEKFNGRWHLRSFEMK No
